SETUP CONDITIONS: male, human, blood, oral, 20 gm/day
PROPERTY NAME: concentration at 2 h (µg/mL)
Field: numeric (µg/mL). Do not append units.

Qu. Name the recorded concentration at 2 h for CN(CC(=O)O)C(=N)N.O [creatine•H2O, creatine monohydrate] .
Ans. 260

====

SETUP CONDITIONS: male, human, blood, oral, 20 gm/day
PROPERTY NAME: concentration at 5 h (µg/mL)
Field: numeric (µg/mL). Do not append units.

Qu. Name the recorded concentration at 5 h for CN(CC(=O)O)C(=N)N.O [creatine•H2O, creatine monohydrate] .
Ans. 102

Hello, the source for this data is patent US10231933B2, in case you need it.
